tested on: 699152-130-R-J1-PDC complex spheroid growth; test: Anticancer human tumor 699152-130-R-J1-PDC patient-derived pancreatic carcinoma cell line growth inhibition [AhR]; details: second compound 1 µM; first compound 3.16 µM; stronger effect = lower value
I'd be grateful if you could share measured viability, T/C for these entries.
Field: numeric (%). Do not append units.

So what's the measured viability, T/C for this one? Nc1ccccc1NC(=O)c1ccc(CNC(=O)OCc2cccnc2)cc1 + CC(CO)NC(=O)c1cc(-c2ccc(Cl)cc2)nn(-c2cnn(C)c2)c1=O 71

Also COc1ccc([C@@H](O)c2cc(-c3ncnc4cc(N5CCOCC5)ccc34)c(F)cc2Cl)nn1 + Cc1cncc(-c2nc(NCCc3c[nH]c4ccccc34)c3ncn(C(C)C)c3n2)c1 , if possible. 76.2

Also NS(=O)(=O)OCC1CC(n2ccc3c(NC4CCc5ccccc54)ncnc32)CC1O (stereo not drawn) + Cc1cncc(-c2nc(NCCc3c[nH]c4ccccc34)c3ncn(C(C)C)c3n2)c1 , if possible. 18.8

---

tested on: 699152-130-R-J1-PDC complex spheroid growth; experiment: Anticancer human tumor 699152-130-R-J1-PDC cell line growth inhibition [AhR]; settings: curve of first compound; second compound 3.16 µM;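 also: compound exposure lasted 7 days after spheroids had grown for 3 days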
parameterMeasured: IC50

So what's the measured IC50 for this one? O=C(c1cc(Cc2n[nH]c(=O)c3ccccc23)ccc1F)N1CCN(C(=O)C2CC2)CC1 + Cc1cncc(-c2nc(NCCc3c[nH]c4ccccc34)c3ncn(C(C)C)c3n2)c1 > 10 µM

Also Nc1ccn(C2OC(CO)C(O)C2(F)F)c(=O)n1 (stereo not drawn) + Cc1ccccc1N=Nc1ccc(NC(=O)c2ccnn2C)c(C)c1 , if possible. 0.458 µM

Also CCN(c1cc(-c2ccc(CN3CCOCC3)cc2)cc(C(=O)NCc2c(C)cc(C)[nH]c2=O)c1C)C1CCOCC1 + Cc1ccccc1N=Nc1ccc(NC(=O)c2ccnn2C)c(C)c1 , if possible. > 3 µM

---

tested on: 699152-130-R-J1-PDC complex spheroid growth; assay: Anticancer human tumor 699152-130-R-J1-PDC cell line growth inhibition [AhR]; conditions: curve of first compound; second compound 3.16 µM;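 also: compound exposure lasted 7 days after spheroids had grown for 3 days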
I'd be grateful if you could share measured pIC50 for these entries.
Remember the convention: pIC50 equals -log10 of concentration in molar.

So what's the measured pIC50 for this one? CCc1c2c(nc3ccc(O)cc13)-c1cc3c(c(=O)n1C2)COC(=O)[C@]3(O)CC + Cc1ccccc1N=Nc1ccc(NC(=O)c2ccnn2C)c(C)c1 7.65

Also Nc1ccccc1NC(=O)c1ccc(CNC(=O)OCc2cccnc2)cc1 + Cc1cncc(-c2nc(NCCc3c[nH]c4ccccc34)c3ncn(C(C)C)c3n2)c1 , if possible. 5.27

Also CCc1c2c(nc3ccc(O)cc13)-c1cc3c(c(=O)n1C2)COC(=O)[C@]3(O)CC + CC(CO)NC(=O)c1cc(-c2ccc(Cl)cc2)nn(-c2cnn(C)c2)c1=O , if possible. 7.66

Also NS(=O)(=O)OCC1CC(n2ccc3c(NC4CCc5ccccc54)ncnc32)CC1O (configuration not stated) + Cc1ccccc1N=Nc1ccc(NC(=O)c2ccnn2C)c(C)c1 , if possible. 6.16

Also NS(=O)(=O)OCC1CC(n2ccc3c(NC4CCc5ccccc54)ncnc32)CC1O (configuration not stated) + CC(CO)NC(=O)c1cc(-c2ccc(Cl)cc2)nn(-c2cnn(C)c2)c1=O , if possible. 6.20
